Value source: ChEMBL document CHEMBL2016448

# assay_text: Free intrinsic clearance in human microsomes
# Format: ADME, Microsome
This listing pairs compounds with measured CL free.

{"columns": ["compound", "CL free, µL/min/mg"],
 "data": [
  ["O=C1[C@@H](Cc2n[nH]c3ccccc23)c2nnc(-c3ccccc3)n2-c2ccccc2N1CC(=O)N1CCCCC1Cc1ccccc1 (some centres undefined)", 846],
  ["COCCC1CCCCN1C(=O)CN1C(=O)[C@@H](Cc2n[nH]c3ccccc23)c2nnc(-c3ccccc3)n2-c2ccccc21 (single isomer, unassigned)", 154],
  ["CC(C)N(Cc1ccccc1)C(=O)CN1C(=O)[C@@H](Cc2c[nH]c3ccccc23)c2nnc(-c3ccccc3)n2-c2ccccc21", 597],
  ["Cc1cc(C)cc(C[C@H]2CCCCN2C(=O)CN2C(=O)[C@@H](Cc3n[nH]c4ccccc34)c3nnc(-c4ccccc4)n3-c3ccccc32)c1", 2300]
]}
